# test-system: T1, FinO (F-like plasmid (Escherichia coli), UniProt P29367 1-186)
# T1 sequence: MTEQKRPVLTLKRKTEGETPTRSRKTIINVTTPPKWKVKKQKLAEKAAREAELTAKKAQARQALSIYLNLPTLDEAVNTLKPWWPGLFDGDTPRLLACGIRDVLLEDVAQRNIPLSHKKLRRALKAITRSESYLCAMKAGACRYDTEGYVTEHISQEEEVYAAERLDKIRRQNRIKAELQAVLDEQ
# measurement-notes: EMSA; 25 mM Tris-HCl pH 7.5, 150 mM NaCl, 5% glycerol, 1 mM MgCl2, 1 nM 32P-RNA, 30 min at room temperature; native 6% PAGE in 0.5x TBE at 4 C
# measurement-conditions: protein: recombinant; tags: His6-TEV site (ENLYFQ/S) N-terminal in the expression construct; label: 32P
pKd: −log10 of the molar value.
assay-endpoint: pKd

- binder: "malM-3' U64A;U85G;U86A (structured_RNA) RNA: GCUUUAUCAGCAGUGUAAAAGGCAAGGGGUAAUUACGCCCCACAGUGCUGAUUUUGCAACAACAGGUGCGUCUCCUGGCGCACCGAUUUUU"
  assay-endpoint: "pKd"
  endpoint-result: 6.89
- binder: "FinP A39U;G75U (structured_RNA) RNA: GGAUACAUAGGAACCUCCUCACAAAGGAUUCUAUGGACUGUCGAUGCAGGGAGUUCACGUCUCCCUGCAUCGGCUAUUUU"
  assay-endpoint: "pKd"
  endpoint-result: 6.70
- binder: "malM-3' U64A;U85G (structured_RNA) RNA: GCUUUAUCAGCAGUGUAAAAGGCAAGGGGUAAUUACGCCCCACAGUGCUGAUUUUGCAACAACAGGUGCGUCUCCUGGCGCACCGUUUUUU"
  assay-endpoint: "pKd"
  endpoint-result: 6.82
- binder: "FinP A39U;G75U;A76U (structured_RNA) RNA: GGAUACAUAGGAACCUCCUCACAAAGGAUUCUAUGGACUGUCGAUGCAGGGAGUUCACGUCUCCCUGCAUCGGCUUUUUU"
  assay-endpoint: "pKd"
  endpoint-result: 6.77
